Values were extracted from paper PMC7576480.

Item-by-item account of solubility
Test: Solubility in ultra-pure water and in HP-β-CD solutions at 37 °C
Format: physicochemical
Conditions: 37 °C, thermodynamic from solid; ultra-pure water, 37 ± 0.5 °C; read-out: Intrinsic solubility (S0)
Method: Quantitative analysis of PTA34 and PTA73 was carried out by spectrophotometry using a dual-beam UV-VIS Lambda 20 Bio spectrophotometer (Perkin Elmer, Milan, Italy) and quartz cuvettes, with a capacity of 1 mL, using methanol as solvent. In the case of PTA34 the reading was carried out at a wavelength of 320 nm, and a calibration straight line (r^2 = 0.9979), in the concentration range between 0.15 mg/mL (4.45 × 10^−4 mM) and 0.015 mg/mL (4.45 × 10^−5 mM), was obtained. […]
Give a bare numeral; the unit µM is implied.

O=C(Nc1ccc(-c2ccc(F)cc2)cc1[N+](=O)[O-])c1cccnc1 5.78

Shifting focus to the molecule that follows.
Prompt line: Using the record for O=C(Nc1ccc(-c2ccccc2)cc1[N+](=O)[O-])c1cccnc1 , report its solubility.
Response line: 22.4
